This collection of values is drawn from patent US11992558B2.

assay: pH-dependent aqueous solubility at ambient temperature; format: physicochemical; settings: 20 °C, aqueous buffer; 0.05N Phosphate Buffer, pH 7.2, 20 to 25° C.
experimental_readout: solubility (µg/mL)
Response body: numeric value in µg/mL, unit text excluded.

Indicate its recorded solubility; the compound in question is Cc1c(-c2ccccc2)oc2c(C(=O)OCCN3CCCCC3)cccc2c1=O.Cl [flavoxate] 1040

====

Experiment: pH-dependent aqueous solubility at ambient temperature
Type: physicochemical
Details: 20 °C, aqueous buffer; 0.05N Phosphate Buffer, pH 7.5, 20 to 25° C.
Procedure: Solubility of flavoxate hydrochloride was determined in various aqueous buffers, water, ethanol, acetone and ethyl ether at 20° C. and at ambient temperature (20 to 25° C.).
experimental_readout: solubility (µg/mL)
Answer in µg/mL, number only, no unit symbol.

For Cc1c(-c2ccccc2)oc2c(C(=O)OCCN3CCCCC3)cccc2c1=O.Cl [flavoxate] , write its solubility. 580
